assay.overview: Concentration of the compound in blood after oral administration to rats (bioassay)
Assay type: in vivo, Male wister rats
condition.info: rat, 1.0 hour, 50 mg/kg
Description: Male wister rats (7 weeks old) were administered orally with the test compound, and the change of the concentration of the compound in blood was measured. Dosage of the test compound: 50 mg/kg Quantitative method: Bioassy test bacterium: Escherichia coli SC507)
Structures can show the parent of a compound that is named as a salt.
Recorded concentration at 1 h for the following molecules
Give just the number in ng/mL; leave the unit off.

{"columns": ["molecule", "assay.metric", "unit.tag", "observed"],
 "data": [
  ["CCOC(=O)/C=C\\SC1=C(C(=O)O)N2C(=O)[C@@H](NC(=O)/C(=N\\OCC(=O)O)c3csc(N)n3)[C@H]2SC1", "concentration at 1 h", "ng/mL", 34000]
]}

Now, please, on to the next molecule.
# get_value(readout='concentration at 1 h', item= COC(=O)/C=C\SC1=C(C(=O)O)N2C(=O)[C@@H](NC(=O)/C(=N\OCC(=O)O)c3csc(N)n3)[C@H]2SC1 [A, sodium salt] )
37800
